Data origin, for the record: paper PMC7442650

target: Bcin16g04330 (predicted glycogen synthase kinase-3β homolog) (Botrytis cinerea, UniProt A0A384K7E5); assay: LiP-Quant, Botrytis cinerea lysate; conditions: read-out: extrapolated average EC50; top two ranking LiP-Quant peptides
Sequence (A0A384K7E5 1-398): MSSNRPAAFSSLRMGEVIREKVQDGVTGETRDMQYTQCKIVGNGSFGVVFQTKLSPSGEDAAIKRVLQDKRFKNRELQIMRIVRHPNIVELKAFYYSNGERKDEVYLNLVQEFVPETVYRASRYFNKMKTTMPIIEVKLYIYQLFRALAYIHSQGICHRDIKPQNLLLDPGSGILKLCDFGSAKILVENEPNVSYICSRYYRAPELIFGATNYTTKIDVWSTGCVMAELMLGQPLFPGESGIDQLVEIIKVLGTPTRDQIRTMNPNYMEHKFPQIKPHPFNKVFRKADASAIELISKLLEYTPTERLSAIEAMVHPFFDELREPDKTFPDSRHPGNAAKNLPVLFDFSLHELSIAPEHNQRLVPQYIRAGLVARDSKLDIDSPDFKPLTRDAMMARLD
property name: EC50 (nM)
Numbers only, in nM.

EC50 reading for `CCC(=O)Nc1cc(-c2c(-c3ccc(F)cc3)nn3c2CCC3)ccn1` : 1600

* * *

target: Botrytis cinerea MBP-CK1 recombinant enzyme (MBP-tagged Bcin06g02870) (Botrytis cinerea); experiment: CK1 kinase assay (LANCE Ultra TR-FRET); conditions: read-out: IC50 (% Inhibition of CK-1)
Sequence (A0A384JJQ0 1-368): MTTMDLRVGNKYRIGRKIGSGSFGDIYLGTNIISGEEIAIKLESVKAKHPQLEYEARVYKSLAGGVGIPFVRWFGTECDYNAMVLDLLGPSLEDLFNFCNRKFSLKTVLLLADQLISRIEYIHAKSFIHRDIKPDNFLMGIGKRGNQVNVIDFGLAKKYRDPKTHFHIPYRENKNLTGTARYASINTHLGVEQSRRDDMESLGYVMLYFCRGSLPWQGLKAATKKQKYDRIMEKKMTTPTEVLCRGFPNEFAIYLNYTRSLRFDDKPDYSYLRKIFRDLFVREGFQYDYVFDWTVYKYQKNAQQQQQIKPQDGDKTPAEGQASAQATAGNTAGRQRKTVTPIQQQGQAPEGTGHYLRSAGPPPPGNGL
property name: pIC50
Answers are plain numbers, as −log10 of the molar value.

Given the compound `CCC(=O)Nc1cc(-c2c(-c3ccc(F)cc3)nn3c2CCC3)ccn1` and test system Botrytis cinerea MBP-CK1 recombinant enzyme (MBP-tagged Bcin06g02870) (Botrytis cinerea), the measured pIC50 is 7.90
